// IMPDH human type II (Homo sapiens, UniProt P12268) Ki records

{"compound": "O=C(Nc1ccc(Oc2ccccc2)cc1)c1cc2ccccc2cc1O", "measured on": "IMPDH human type II (Homo sapiens, UniProt P12268)", "Ki": "< 10 µM"}
{"compound": "COc1ccccc1N(C)C(=O)c1cc2ccccc2cc1O", "measured on": "IMPDH human type II (Homo sapiens, UniProt P12268)", "Ki": "10 to 20 µM"}
{"compound": "O=S(=O)(Nc1ccc(-c2cnco2)cc1)c1ccccc1", "measured on": "IMPDH human type II (Homo sapiens, UniProt P12268)", "Ki": "10 to 20 µM"}
{"compound": "COc1ccc(NC(=O)c2cc3ccccc3cc2O)cc1", "measured on": "IMPDH human type II (Homo sapiens, UniProt P12268)", "Ki": "10 to 20 µM"}
{"compound": "N#Cc1ccccc1NC(=O)c1cc2ccccc2cc1O", "measured on": "IMPDH human type II (Homo sapiens, UniProt P12268)", "Ki": "10 to 20 µM"}
{"compound": "COc1ccc(C(N)=O)cc1NC(=O)c1cc2ccccc2cc1O", "measured on": "IMPDH human type II (Homo sapiens, UniProt P12268)", "Ki": "10 to 20 µM"}

Problem: Ki of O=C(Nc1cccnc1)c1cc2ccccc2cc1O on IMPDH human type II (Homo sapiens, UniProt P12268)?
Result: > 20 µM

Problem: Ki of COc1ccc(OC)c(S(=O)(=O)Nc2ccc(-c3ncon3)cc2)c1 on IMPDH human type II (Homo sapiens, UniProt P12268)?
Result: 10 to 20 µM

Problem: Ki of COc1ccc(C(F)(F)F)cc1NC(=O)c1cc2ccccc2cc1O on IMPDH human type II (Homo sapiens, UniProt P12268)?
Result: 10 to 20 µM

Problem: Ki of COc1ccc(OC)c(S(=O)(=O)Nc2ccccc2C#N)c1 on IMPDH human type II (Homo sapiens, UniProt P12268)?
Result: 10 to 20 µM

Problem: Ki of COc1ccc(OC)c(S(=O)(=O)Nc2ccc([N+](=O)[O-])cc2)c1 on IMPDH human type II (Homo sapiens, UniProt P12268)?
Result: 10 to 20 µM

Problem: Ki of COc1ccccc1NC(=O)c1cc2cc(Br)ccc2cc1OCc1ccccc1 on IMPDH human type II (Homo sapiens, UniProt P12268)?
Result: < 10 µM

Problem: Ki of O=C(Nc1cccc(Br)c1)c1cc2ccccc2cc1O on IMPDH human type II (Homo sapiens, UniProt P12268)?
Result: 10 to 20 µM

Problem: Ki of O=C(Nc1ccccc1C(F)(F)F)c1cc2ccccc2cc1O on IMPDH human type II (Homo sapiens, UniProt P12268)?
Result: 10 to 20 µM

Problem: Ki of COc1ccccc1N(C)Cc1cc2cc(Br)ccc2cc1O on IMPDH human type II (Homo sapiens, UniProt P12268)?
Result: < 10 µM

Problem: Ki of CCC(C)c1ccc(OC)c(NC(=O)c2cc3ccccc3cc2O)c1 (stereo not shown) on IMPDH human type II (Homo sapiens, UniProt P12268)?
Result: < 10 µM

Problem: Ki of CSc1cccc(NC(=O)c2cc3ccccc3cc2O)c1 on IMPDH human type II (Homo sapiens, UniProt P12268)?
Result: 10 to 20 µM
